- SUBJECT OF TEST: CDK7/CyclinH/Mat1 (Homo sapiens)
- Sequence (P50613 whole entry, species assumed): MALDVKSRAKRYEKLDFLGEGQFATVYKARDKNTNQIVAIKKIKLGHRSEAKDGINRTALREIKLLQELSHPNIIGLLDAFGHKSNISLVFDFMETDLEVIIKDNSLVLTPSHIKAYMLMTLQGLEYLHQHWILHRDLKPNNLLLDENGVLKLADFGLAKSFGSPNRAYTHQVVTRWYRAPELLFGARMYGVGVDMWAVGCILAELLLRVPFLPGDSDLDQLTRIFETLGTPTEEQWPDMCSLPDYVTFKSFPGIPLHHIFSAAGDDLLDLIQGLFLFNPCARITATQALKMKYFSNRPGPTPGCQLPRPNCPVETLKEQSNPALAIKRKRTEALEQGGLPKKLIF
- Sequence (P51946 whole entry partner, species assumed): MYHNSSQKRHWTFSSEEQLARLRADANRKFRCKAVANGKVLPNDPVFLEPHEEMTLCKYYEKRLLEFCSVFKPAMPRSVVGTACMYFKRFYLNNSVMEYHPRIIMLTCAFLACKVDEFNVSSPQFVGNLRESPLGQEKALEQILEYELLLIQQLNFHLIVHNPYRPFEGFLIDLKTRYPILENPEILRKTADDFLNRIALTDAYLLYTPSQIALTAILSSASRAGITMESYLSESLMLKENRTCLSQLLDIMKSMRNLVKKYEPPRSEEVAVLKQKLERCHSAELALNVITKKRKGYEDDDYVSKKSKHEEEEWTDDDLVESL
- Sequence (P51948 whole entry partner, species assumed): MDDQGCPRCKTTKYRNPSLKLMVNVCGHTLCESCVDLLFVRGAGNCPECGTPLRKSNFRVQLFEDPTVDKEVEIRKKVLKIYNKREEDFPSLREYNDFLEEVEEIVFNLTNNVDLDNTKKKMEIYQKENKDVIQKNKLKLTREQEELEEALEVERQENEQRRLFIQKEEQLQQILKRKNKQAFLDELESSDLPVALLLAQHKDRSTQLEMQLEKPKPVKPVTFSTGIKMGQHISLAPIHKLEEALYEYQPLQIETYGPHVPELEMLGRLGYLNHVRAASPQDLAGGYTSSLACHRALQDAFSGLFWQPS
- TEST PROTOCOL: ADP Glo kinase assay, CDK7/CyclinH/Mat1
- Format: biochemical
- TEST CONDITIONS: compound at 1 μM, read-out: Residual enzymatic activity (%) at 1 μM, CDK7 H

MOLECULAR STRING	SUBJECT OF TEST	remaining activity at 1 µM / %
CC(=O)N1CCN(c2ccc(Nc3nccc(-c4cnc5ccc(-c6cccc7[nH]ccc67)cn45)n3)cn2)CC1	CDK7/CyclinH/Mat1 (Homo sapiens)	81
CCCNc1ccc(Nc2nccc(-c3cnc4ccc(Br)cn34)n2)cn1	CDK7/CyclinH/Mat1 (Homo sapiens)	78
CCCNc1ccc(Nc2nccc(-c3cnc4ccc(-c5ccccc5)cn34)n2)cn1	CDK7/CyclinH/Mat1 (Homo sapiens)	80
O=C(c1ccco1)N1CCN(c2ccc(Nc3nccc(-c4cnc5ccc(Br)cn45)n3)cn2)CC1	CDK7/CyclinH/Mat1 (Homo sapiens)	60
CC(=O)N1CCN(c2ccc(Nc3nccc(-c4cnc5ccc(-c6ccccc6)cn45)n3)cn2)CC1	CDK7/CyclinH/Mat1 (Homo sapiens)	79
